Provenance of the data: the EternaBench riboswitch data

Tested on: MS2 coat protein
experiment: apparent Kd, MS2 coat protein; higher = weaker binding; RNA-MaP array
stated conditions: designed as: ON switch for tryptophan; no ligand
property name: apparent Kd
Field: value (include unit after the number)

UAGCAUAGUACGGCCGCCACUCCUGGUUCCCGGCCGUGUGUAAGACAUGAGGAUCACCCAUGUAGGAGGACCGGGUAUCGCUUGC = 14 nM
CACUACAUGAGGAUCACCCAUGUAUACUGACGAGGACCGGUACGGCCGCCACUCGAACCGAAACCGACUUCAUUCUGUGUACCAU = 15.4 nM
GCGUUGGCCACGGCCGCCACUCAGGUACCGCGCGUAGUGAACUUACAUGAGGAUCACCCAUGUCUGAGGACCGGGUGGCCGCCAC = 37.3 nM

Form entry - test system: MS2 coat protein; read-out: apparent Kd; sequence: `UGGUACAUGAGGAUCACCCAUGUCCUCAUCCGAGGACCGGUACGGCCGCCACUCGAAAUUGCGAUCGGCACAAAACAAAUGCUUG` 142 nM

Entry `GGCUACAUGAGGAUCACCCAUGUUUCUCGUCGAGGACCGGUACGGCCGCCACUCGUUGUUGGGACUCAGUAUCAGUCGUUAGUUU` , system MS2 coat protein: what apparent Kd was measured? 25.5 nM

* * *

System: MS2 coat protein
experiment: apparent Kd, MS2 coat protein; higher = weaker binding; RNA-MaP array; FMN 200 µM where present
stated conditions: designed as: OFF switch for flavin mononucleotide; no ligand
property name: apparent Kd (nM)
Lab book: enter the figure in nM, no units written.

Worked examples follow.
UAGAAUCGAGGAUAUACAUGAGGAUCACCCAUGUGUGGCCAUACUGUGUGGUCGUCAGGUAGAAGGCGAUUAUA = 72.3
CUUUCGUUAGCAGGAUAUGGACAGGCCUGUCCGUAUUGAGUCAGUAACAUGAGGAUCACCCAUGUCCAGAAGGGCUCGAAGGGA = 14.1
CGUCCUUAGUGAGGAUAUCAGAAAAUACGGAAAUGAGAAGGCACAUGAGGAUCACCCAUGUAAAUAACGGCCGGUCUUGGCAGC = 7.96

Can you look up the measured apparent Kd of `AAAUUUAACGAAGGAUAUGCUGACAUGAGGAUCACCCAUGUGUGCCUUGUGUUGCUGAUUAGGUUGCAGAAGGUCGUAUACAUA` for me? 330

* * *

Test system: MS2 coat protein
experiment: apparent Kd, MS2 coat protein; higher = weaker binding; RNA-MaP array
stated conditions: designed as: OFF switch for flavin mononucleotide; no ligand
In this section, each of the sequences is paired with its reported apparent Kd.
Numeric answer only, unit nM assumed.

# example entries with known answers
GAACAUCGAGGAUAUACAUGAGGAUCACCCAUGUAUUAGAGGGUGCCCUAGCUCAAAAGUAGAAGGCGACAGGU = 9.8
UAAUGCAUAACAUGAGGAUCACCCAUGUAGUAAAAUGGUGGUUAGGAUAUAGCACGUGAAUCGACCUAGAAGGAACGUCCUUAC = 33.3
UCUAGUGCAUAGGAUAUCAUGGUUCAUUAGUACUGAGAAGGAUGCACAUGAGGAUCACCCAUGUUCUCUGACAG = 26.2
UACGUGUUAGGAUAUCGAGUAGUAUGGCUGGCCUGCAAAACCGAGAAGGAACAUGAGGAUCACCCAUGUAUCUU = 8.05
AGUAAAGUAGAAGGAUAUCACGAACAUGAGGAUCACCCAUGUUAAGAUCGGCGUGAGACAACAGAUGAGAAGGACUAAUAUGCU = 10.9
AAUCCUAAUGUCAGGAUAUUGCAGAAGCCAGAACACAAGAAGGGACAUGAGGAUCACCCAUGUAUAGUCACAUA = 22.4

Then there is this sequence:
Look up apparent Kd with MS2 coat protein for this sequence: `GACAUGAGGAUCACCCAUGUGGGAAAGGUGUACUCUUGCGACUAGGAUAUGUUGUGGUCCCAGAGACAGAAGGAGUGGCGACGU` 52.1

* * *

Listed here are sequences together with their documented apparent Kd.
System: MS2 coat protein
experiment: apparent Kd, MS2 coat protein; higher = weaker binding; RNA-MaP array; theophylline 2 mM where present
stated conditions: ligand present: theophylline; designed as: ON switch for theophylline
Numeric only. Scale: µM

AUCGCACCUGGUGAUACCAGCGUUUGCUCGUGACAUGAGGAUCACCCAUGUGGCCAGUGAUGCCCUUGGCAGCAUGGUCGGUGCA = 0.177
AACAGGGCUUCCACGAAGCCCUAAGGUGAUACCAGCACAUGUAAGUGCCCUUGGCAGCACGGUACAUGAGGAUCACCCAUGUAGA = 0.366
AAUAACAUGAGGAUCACCCAUGUAAAAGAUACCAGAGUGAUGAUCCUCCCUUGGCAGCUUAAACGCUAUUGGAAACAAUAGCGAA = 0.167

Request - read-out apparent Kd | tested on MS2 coat protein | sequence `AUCGUACCUAGUGAUACCAGCAAGUGAUCAUAACAUGAGGAUCACCCAUGUAAUCAGUGAUGCCCUUGGCAGCAUAAUCGUUACA` 0.155

Short answer please: apparent Kd, MS2 coat protein, entry `AUUUAUGGUCGUGAUACCAGACAUACAUGAGGAUCACCCAUGUGAAAUAACAUAAUUUAGGUCCCUUGGCAGCACUUUUUAAUUA` 0.0383

* * *

Listing of recorded apparent Kd by entry.
Test system: MS2 coat protein
experiment: apparent Kd, MS2 coat protein; higher = weaker binding; RNA-MaP array
stated conditions: ligand present: flavin mononucleotide; designed as: OFF switch for flavin mononucleotide
Write down the numeric answer in nM and omit the unit.

Before answering, review these 5 worked examples.
UCGGAUACUGUAGGAUAUCGACCAAAUUUUCCUCGAGAAGGACAUCUAUAUAUAGAGAACAUGAGGAUCACCCAUGUGUUUUUG = 15.2
CAAUGGACGGUAGGAUAUGUACUAGAGAAGCAGACAGAAGGACCUAGUCCGACAUGAGGAUCACCCAUGUGAAACCCGGUCCAG = 6.44
AAUGACGCGAAGAAGGACUGAUACCAGCUAAAAGUAGGAUAUUCUGAACGUGGACGGUUUACAUGAGGAUCACCCAUGUAUGAA = 9.01
GUUUCGUCAGGAUAUGCUUAAGAAGUCUUCUCACCGGACUUGCAGAAGGGACAUGAGGAUCACCCAUGUGGUAA = 167
AACAAGUAGGAGAAGGUAGAUGAGACUGUGCACUAAGGAUAUCCAUACAUGAGGAUCACCCAUGUCUGGACUAGUAUAUGGACA = 5.69

Test system MS2 coat protein; read-out apparent Kd; what value for `UGCCCAAACAUGAGGAUCACCCAUGUUGUGACCUCGGGAGCCAGAAGGGUAUUAAACAAGUCGGUACAGGAUAUGGUCUAGUAA` ? 214

Lab note: need apparent Kd for `AUUCGGUCAGGAUAUAGCGCACGCCGACGAACAUGUGGCGGCUAGAAGGGACAUGAGGAUCACCCAUGUCGGGC` on MS2 coat protein, anyone have it? 10.7

Return apparent Kd measured with MS2 coat protein given this sequence: `UGGUAGUUGGAGAAGGGAUCGUCGGAACCCAGAUCAGGAUAUCCGACUACAUGAGGAUCACCCAUGUCCUAUCAGUACAAGUAC` 41

* * *

System: MS2 coat protein
experiment: apparent Kd, MS2 coat protein; higher = weaker binding; RNA-MaP array; FMN 200 µM where present
stated conditions: ligand present: flavin mononucleotide; designed as: OFF switch for flavin mononucleotide
Reported apparent Kd by item:
Reply with the number, then its unit.

The examples below pair each entry with its known result.
UCAUGUUAGCAGGAUAUGCUAUUUAUCUUUUAUGCAGAAGGGCUUACAUGAGGAUCACCCAUGUAUUAAGUCUU = 52.5 nM
UGCUGUGUCAGAGGAUAUACUCUAAUAAUCCAUUGCAAAUAGCGAUGGACAUGAGGAUCACCCAUGUAGAAGGCUGUCACAGCA = 140 nM

We now examine a further sequence.
I have this sequence here, `GAGCGGUGAGCAGGAUAUCCACAUUGCCUCCUACAUGAGGAUCACCCAUGUGGAGAAGGGUUUAUAAGUUCGUGUAUACUCAAU` , and I need its recorded apparent Kd. 10 nM

* * *

System: MS2 coat protein
experiment: apparent Kd, MS2 coat protein; higher = weaker binding; RNA-MaP array; FMN 200 µM where present
stated conditions: ligand present: flavin mononucleotide; designed as: ON switch for flavin mononucleotide
property name: apparent Kd (nM)
The reply should contain only the number, in nM.

Endpoint output: apparent Kd of `GUAGAUAGAUAGAAGGUAUGGUAUUAGAUUAAAUAAGGAUAUAUGAACAUGAGGAUCACCCAUGUAUUAUGGGAUAGAUAGACU` . Value? 153

Look at this sequence and give its reported apparent Kd. `CGCUAGGAUGGGUCUAAUGGACCACAGGAUAUGCUUGUACAUGAGGAUCACCCAUGUAAUAUUGUGCAGAAGGGUGGAUUCGCG` 10.9

What apparent Kd value was documented for this sequence, `GCUGUCGCAUGAGGAUAUGGUCAGCUUUGCUGACCAGAAGGCAUGUCAAUAGACAUGAGGAUCACCCAUGUAGUAAAGACAGCU` ? 33.9

Fill in the blank: the reported apparent Kd of `GCCAACUUAUGAGGAUAUGGCACCUUAUUGGUGCCAGAAGGCAUGUCUAUUGACAUGAGGAUCACCCAUGUAUUAUAGUUGGCA` is ____. 159

Which measured apparent Kd value corresponds to `GUGGUCAGACAUGAGGAUCACCCAUGUGGAAUAAAUAAGGAGAAGGAUAUUGAAUAUAGGAUAUACAAGAAGGUCUGGUUGGUG` ? 87

Look up apparent Kd: `GAAUUCGCAUGAGGAUAUGCACUCAUUUCAUGUGCAGAAGGUAUAACAUUAGACAUGAGGAUCACCCAUGUAUUAGUCAUUAAC` 9.37

Look up apparent Kd for this sequence: `GUGGUCAGACAUGAGGAUCACCCAUGUGGAAUAAAUAAGGGAGAGGAUAUAUAAUAUAGGAUAUAAUAGAAGGCUCGGUUGGUG` 111
